Test system: MDA-MB-435
Overview of recorded GI50 for various compounds

COMPOUND	TESTED TARGET	GI50
COc1cc2c(cc1C)NC(=O)/C2=C\c1c[nH]c2ccccc12	MDA-MB-435	14.3 µM
FC(F)(F)c1cc(Nc2ccc3cc(OCCCN4CCOCC4)ccc3n2)ccc1Cl	MDA-MB-435	1.75 µM
N#CC1C(=O)NC(c2ccccc2[N+](=O)[O-])c2sc3c(F)cccc3c21 (stereo not given)	MDA-MB-435	23.2 µM
CCCCCCCC(=O)[O][Hg][CH2]C1COC([CH2][Hg][O]C(=O)CCCCCCC)CO1 (stereo not given)	MDA-MB-435	12.9 µM
COCCn1cc(-c2csc(-c3c[nH]c4ccc(Br)cc34)n2)c2cccnc21	MDA-MB-435	4.12 µM
COC1=CC(=O)c2nc(Cl)ccc2C1=O	MDA-MB-435	1.79 µM
Cc1ccc(OCC2OC(n3cnc4c(Br)nc(Br)nc43)CC2Oc2ccc(C)cc2)cc1 (stereo not given)	MDA-MB-435	6.85 µM
C#Cc1cccc(NC(=O)c2ccc(NC(=O)CCl)cc2)c1	MDA-MB-435	43.8 µM
COc1cnc2c(c1)C(=O)c1c-2n(CCCN2CCNCC2)c(=O)c2cc([N+](=O)[O-])ccc12	MDA-MB-435	1.25 µM
CSc1ccc(C(=O)/C=C/c2ccccc2Cl)cc1	MDA-MB-435	12.4 µM

====

System: COLO 205 colon
Assay: NCI tumour cell line growth inhibition, 48 h
ASSAY ENDPOINT: TGI

COMPOUND	ASSAY ENDPOINT	RECORDED MEASUREMENT
COCc1c(-c2ccc(NC(=O)Nc3cc(C(F)(F)F)ccc3F)c(F)c2)c2c(N)ncnn2c1CN1CCOCC1	TGI	2.71 µM
Nc1c(F)cc(-c2nc3cc(F)ccc3[se]2)cc1Br	TGI	> 100 µM
COc1cc(C2c3c(ccc4ccccc34)C(=O)C3CCC(=O)N32)cc(OC)c1O (stereo not given)	TGI	> 25 µM
Cc1cc(Cl)ccc1NC(=O)C(=O)C(C(=O)c1ccccc1)C1OC(=O)c2ccccc21 (stereo not given)	TGI	> 100 µM
Cn1cnc([N+](=O)[O-])c1Sc1nccc(=O)[nH]1	TGI	> 100 µM
COc1cc2c(cc1C)NC(=O)/C2=C\c1c[nH]c2ccccc12	TGI	> 100 µM
Cc1cc(=O)oc2cc(OC/C=C3\CCC(=O)O3)ccc12	TGI	20.5 µM
O=C1NC(c2cccc(OCc3ccccc3)c2)Nc2ccccc21 (stereo not given)	TGI	2.64 µM
COc1ccc(OC)c(/C=C/c2nc(SCc3ccccc3)n(-c3ccc(Cl)cc3)n2)c1	TGI	> 100 µM
COC1C(O)C(C)OC(OC2CCC3(C)C(CCC4C3C(O)CC3(C)C(C5=CC(=O)OC5)CCC43O)C2)C1O (stereo not given)	TGI	1.57 µM
C/C(Cc1ccc2c(c1)OCO2)=N\NC(=O)C(C)Sc1nnc(SC(C)C(=O)N/N=C(\C)Cc2ccc3c(c2)OCO3)s1 (stereo not given)	TGI	> 100 µM
COc1cc2c[n+](C)c3c(c2cc1OC)Cc1cc2c(cc1-3)OCO2	TGI	> 100 µM
COc1ccc2c(c1)C(=O)c1c-2c(Nc2cccc(C(C)=O)c2)nc2ccccc12	TGI	> 100 µM
CN(C)c1ccc(/C=C/c2cc(-c3ccccc3)[n+](C)n2-c2ccccc2)cc1	TGI	0.42 µM
CC(C)[C@@H](C)[C@@]1(C)C[C@@H]1[C@@H](C)[C@H]1CC[C@@H]([C@@H]2CC=C3C[C@@H](O)CC[C@]3(C)C2=O)[C@]1(C)CCO	TGI	24.3 µM
CSCCC(C(=O)O)N(CC1(O)OCC(O)C(O)C1O)N=O (stereo not given)	TGI	> 100 µM
O=C(C/C=C/c1ccccc1)c1ccccc1	TGI	56.6 µM
CCCN1CCC(c2ccc(Nc3nc(Nc4cc(F)ccc4C(N)=O)c4cc[nH]c4n3)c(OC)c2)CC1	TGI	1.78 µM
COc1ccc(/C=C/C(=O)c2ccc(OC(=O)/C=C/c3ccccc3)cc2)cc1	TGI	> 71.6 µM
Cc1csc(NNC(=O)Nc2ccccc2)n1	TGI	> 100 µM
C=CC1(C)OC2(CCN(C(=O)OCC)CC2)OC1C (stereo not given)	TGI	> 100 µM
CC1CC[P+](c2ccccc2)(c2ccccc2)CC1	TGI	> 100 µM
CCCCc1c2c(c(C)c3c1C(=O)OC3)Oc1ccccc1O2	TGI	7.69 µM
COC1/C=C/C(C)C(C(C)C(OC)C(C)CCC(=O)C(C)C(CC(=O)O)OC)OC(=O)/C=C/C=C(\C)CC(OC)CC2=CC(=O)O[C@H](C2)C(C)C(OC)CC(OC)/C=C/C(C)C(OC)C1 (stereo not given in full)	TGI	> 4.35 µM
CCCCN(CCCC)CCCn1cnc2ncccc2c1=O	TGI	> 100 µM
N#Cc1ccc(C2NN=CC23C(=O)c2ccccc2OC3c2ccccc2)cc1 (stereo not given)	TGI	38 µM
O=C(NCCCN1CCN(CCCNC(=O)Nc2cccc3ccccc23)CC1)Nc1cccc2ccccc12	TGI	31.5 µM
C/C(=N/N=C(N)N)c1ccc(NC(=O)Nc2ccc(/C(C)=N/N=C(N)N)cc2)cc1	TGI	> 100 µM
C=CCN(N=O)C(=O)NCCCCC(NC(C)=O)C(=O)NCc1ccccc1 (stereo not given)	TGI	> 100 µM
O=C1C=CC2(C=C1)C[C@H](NC(=O)OCc1ccccc1)C(=O)O2	TGI	18.3 µM
CCOC(=O)CNc1nnnn1C1OC(CO)C(O)C1O (stereo not given)	TGI	> 100 µM
CCN(Cc1ccc(F)cc1)c1ccc(CO)c(OC)c1	TGI	29.7 µM
COC(=O)C1=NN2c3ccccc3CN([C@@H](C)c3ccccc3)C(=O)[C@@H]2[C@H]1c1ccccc1	TGI	> 100 µM
O=C(O[C@H]1CCN2C[C@H]3C[C@H](CN4C(=O)CCC[C@H]34)[C@@H]2C1)c1ccc(O)cc1	TGI	> 100 µM
C/C(=N\NC(=O)CC(=O)N(C(=O)c1ccc(Cl)cc1)c1ccc(C)cc1)c1ccccc1O	TGI	> 100 µM
CCCCc1ccc(C#CC#Cc2ccc(CCCC)s2)s1	TGI	> 100 µM
CCCNC(=O)N1CC(CN2CCN(c3ccccc3)CC2)O/C1=N/C(=O)Nc1ccccc1 (stereo not given)	TGI	74.1 µM
CC[C@@]1(CCC(=O)NCCc2c[nH]c3ccccc23)CCC(=O)N2CCc3c([nH]c4ccccc34)[C@H]21	TGI	> 100 µM
CN(C)CCOC(=O)Nc1nc2ccc(Sc3ccccc3)cc2[nH]1	TGI	5.19 µM
[CH3][Sn]([CH3])([CH3])[O][N+](=O)[O-]	TGI	> 10 µM

====

Tested on: NCI-H522 lung
Assay: NCI tumour cell line growth inhibition, 48 h; in the data active = GI50 below about 0.43 µM; inactive = the rest
Classes used: y = active, n = inactive

MOLECULE	CLASS NAME
O=C(/C=C/OC(=O)c1cccc(Cl)c1)c1ccc(Cl)cc1	n
Nc1c(F)cc(-c2nc3cc(F)ccc3[se]2)cc1Br	n
Nc1ncnc2c1ccn2[C@@H]1O[C@H]([C@H](O)c2ccc(Cl)c(F)c2)[C@@H](O)[C@H]1O	n
CCOP1(=O)C=C(C)C(=C(Cl)Cl)C(C)=C1 (stereo not drawn)	n
CSc1ccc(C(=O)/C=C/c2ccccc2Cl)cc1	n
COc1ccc(OC)c(/C=C/c2nc(SCc3ccccc3)n(-c3ccc(Cl)cc3)n2)c1	n
N#CC1C(=O)NC(c2ccccc2[N+](=O)[O-])c2sc3c(F)cccc3c21 (stereo not drawn)	n
COc1cccc(Nc2nccc(-c3cnn4ncccc34)n2)c1	y
C=CCc1c(O)c(C(=O)/C=C/c2ccccc2)c(OC)c2ccoc12	n
Cc1ccc(S(=O)(=O)N2CCc3ccc(O)c4c3C2Cc2ccc3c(c2-4)OCO3)cc1 (stereo not drawn)	y
Cc1cc(=O)oc2cc(OC/C=C3\CCC(=O)O3)ccc12	n
CCN(Cc1ccc(F)cc1)c1ccc(CO)c(OC)c1	n
Cc1ccc(S(=O)(=O)Nc2ccc(-c3cc(-c4cccc(F)c4)c(C#N)c(N)n3)cc2)cc1	n

====

Test system: SNB-19 CNS
Assay: NCI tumour cell line growth inhibition, 48 h; in the data active = GI50 below about 0.43 µM; inactive = the rest
Classes used: 1.0 (active), 0.0 (inactive)

COMPOUND	CLASS NAME
COc1ccc(OC)c(/C=C/c2nc(SCc3ccccc3)n(-c3ccc(Cl)cc3)n2)c1	0.0
COc1cc(/C=C2\C[C@H]3[C@@H]4CC=C5C[C@@H](OC(C)=O)CC[C@]5(C)[C@H]4CC[C@]3(C)[C@H]2OC(C)=O)ccc1OCCN1CCCC1	0.0
FC(F)(F)c1cc(Nc2ccc3cc(OCCCN4CCOCC4)ccc3n2)ccc1Cl	0.0
COc1cccc(Nc2nccc(-c3cnn4ncccc34)n2)c1	1.0
Cc1ccc(S(=O)(=O)N2CCc3ccc(O)c4c3C2Cc2ccc3c(c2-4)OCO3)cc1 (configuration not stated)	0.0
CCCN1CCC(c2ccc(Nc3nc(Nc4cc(F)ccc4C(N)=O)c4cc[nH]c4n3)c(OC)c2)CC1	0.0
COc1ccc(N(C)c2nc(Cl)nc3cnn(C)c23)cc1	1.0
COc1cc2c(cc1C)NC(=O)/C2=C\c1c[nH]c2ccccc12	0.0
O=[N+]([O-])c1ccc(Sc2ccncn2)c([N+](=O)[O-])c1	0.0
CCC[CH2][Pb]([Cl])([CH2]CCC)[CH2]CCC	1.0
COc1cccc2c1C(=O)c1c(O)c3c(c(O)c1C2=O)C[C@@](O)(C(=O)CO)CC3OC1CC(NCCCC(OC(C)=O)OC(C)=O)C(O)C(C)O1 (some centres not stated)	1.0
Nc1c(F)cc(-c2nc3cc(F)ccc3[se]2)cc1Br	0.0
